Collected pIC50 values appear next to each entry.
Test system: PC14PE6/AS2
protocol.text: In vitro cytotoxicity assay (SRB), PC14PE6/AS2
Format: cell-based
setup.conditions: PC14PE6/AS2 (Non-small cell lung cancer), 72 hours of incubation
pIC50: −log10 of the molar value.
assay.readout: pIC50

| molecule | value.reported |
| --- | --- |
| CC[C@@]1(OC(=O)[C@H](C)O)C(=O)OCc2c1cc1n(c2=O)Cc2cc3c(CN(C)C)c(O)ccc3nc2-1 [S,S-topotecan lactate (U2), S,S-topotecan lactate] | 7.13 |
| CC[C@@]1(OC(=O)[C@@H](C)O)C(=O)OCc2c1cc1n(c2=O)Cc2cc3c(CN(C)C)c(O)ccc3nc2-1 [S,R-topotecan lactate (U1), S,R-topotecan lactate] | 7.68 |

The values you see were collected from patent US8168648B2.
